# ASSAY COMMENT: Retention time of the compound by HPLC
# Assay type: physicochemical
PROPERTY MEASURED: Retention_time (min)

Worked cases, answers included:
Problem: Complete the entry with Retention_time for O=C(NCc1ccc(Cl)cc1)c1nc(-c2ccc(F)cc2)[nH]c(=O)c1O
Solution: 5.03

Problem: Give a short answer stating reported Retention_time for O=C(NCc1ccc(F)c(F)c1)c1nc(-c2ccc(F)cc2)[nH]c(=O)c1O .
Solution: 4.39

Problem: State its Retention_time: O=C(NCc1ccc(F)cc1)c1nc(Cc2ccc(F)cc2)[nH]c(=O)c1O
Solution: 2.989

Problem: Assign Retention_time to the following record: O=C(NCc1ccc(F)cc1)c1nc(-c2cccc(F)c2)[nH]c(=O)c1O
Solution: 2.379

1: O=C(NCc1ccc(O)cc1)c1nc(-c2ccc(F)cc2)[nH]c(=O)c1O
2: O=C(NCc1cccc(Cl)c1)c1nc(-c2ccc(F)cc2)[nH]c(=O)c1O
Problem: Identify the entry with the smaller Retention_time: 1 or 2 . // caller expects the label of the chosen entry
Solution: 1
(1: 2.846 min, 2: 5.251 min)

I: O=C(NCc1ccc(F)c(Cl)c1)c1nc(-c2ccc(F)cc2)[nH]c(=O)c1O
II: O=C(NCc1ccccc1F)c1nc(-c2ccc(F)cc2)[nH]c(=O)c1O
Problem: Given the listed records, identify the one among I and II with higher Retention_time. Response format: the label of the selected entry.
Solution: I

I: O=C(NCc1cc(F)c(F)c(F)c1)c1nc(-c2ccc(F)cc2)[nH]c(=O)c1O
II: O=C(NCc1ccc(F)cc1)c1nc(-c2ccc(Br)cc2)[nH]c(=O)c1O
Problem: For this pair, I and II , which shows a numerically higher Retention_time? Lab note: record the label of whichever item you select.
Solution: I
(I: 3.549 min, II: 2.385 min)
